In this section we review reported PBM binding z-score values for a set of sequences.
Tested on: PXR homodimer (NR concentration 270 nM)
ASSAY_NOTES: PBM binding z-score (relative to random genomic background probes); higher = stronger binding; sequences stand for … in GC…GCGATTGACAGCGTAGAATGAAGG
Reply with just the number.

Use the examples below as a reference point.
CCTACTGGACCAAAAAGGTCATTGATGCCGATAA    2.35
ATCTCTAGGTAAACAAGTTCAGTGAATGCCGAAC    2.08
CCGACTGGGGCATAAGGGTACCATAAGCCAGCCC    -0.387
GATACAGGGTCAGCTGGAGGCCAGAGTATGGAAA    -0.0691
GGAACGAGGGCATGTTGATAGCAGAGTTTGATGG    0.542

Now consider the entry below.
Asked: Which measured PBM binding z-score belongs to CTACCAAGGTTAACAAGGTCGTTGATTACTATTC , tested on PXR homodimer (NR concentration 270 nM)?
Given back: 8.81

---

Tested on: PPARg DBDmut:RXRa IVT, anti-PPARg (DBD mutation: PPARg1 K132A/R137A, NR concentration 270 nM, RXRa partner concentration 90 nM)
ASSAY_NOTES: PBM binding z-score (relative to random genomic background probes); higher = stronger binding; sequences stand for … in GC…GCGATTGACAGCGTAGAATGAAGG
In this section we review reported PBM binding z-score values for a set of sequences.
Reply with just the number.

Use the examples below as a reference point.
TCTAGCAGGCCGGAGGGTCACTCAAGAGGTACGG    -0.889
GGAACGTGGGCATTCGAGTTGATAGCATGGCGAT    -0.387
TCTAGTGGGTCACGGAGGTCACACACGACGGGTA    1.74
ACTTACGGGTCAACGAGATTATAGCACGCGTATA    1.69

Asked: What does the data say about its PBM binding z-score? Entry: CCTACTGGGCCACGAAAGGTCATGGATTCAGTGA
Given back: -0.103

Asked: // query: CCTTACGGGTCACTGACATGTTATAGCATTTGGA
Given back: 1.46

---

Tested on: LXRa homodimer (NR concentration 270 nM)
ASSAY_NOTES: PBM binding z-score (relative to random genomic background probes); higher = stronger binding; sequences stand for … in GC…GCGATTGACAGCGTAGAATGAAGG
Param threshold (0.2) applies to PBM binding z-score; output Satisfied when value >= threshold, Not satisfied when value < threshold.

Asked: Has ATCTCTAGGTAACAAGTTCAGTGAAAGAGAGGAC a recorded PBM binding z-score greater than or equal to 0.2?
Given back: Satisfied

Asked: // query: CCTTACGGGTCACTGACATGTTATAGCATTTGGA
Given back: Satisfied

Asked: // query: CCTAACGGGTCAAGGTTATAGCACGGGTGGTACG
Given back: Not satisfied

Asked: // query: TGACCAAGGTGAAAGGTCGTTGATGCACGCCTTG
Given back: Satisfied

Asked: // query: CCTACTCGGCCAAGGTCATTGATCAGTCAAAGCA
Given back: Satisfied

Asked: // query: GGAACGAGGGCAAGGTTGATAGCATCTGTCGACG
Given back: Not satisfied

Asked: // query: TCTAGATGGTCACGGAGGTCACACACGACGGGTA
Given back: Satisfied

Asked: // query: TCTATTAGTTGAAGCGCAACCGACGAGTCCGTTT
Given back: Not satisfied

Asked: // query: ATCTCTAGGTAACCAAGTTAAGTGAATGCCGAAC
Given back: Satisfied

Asked: // query: AGTCAAAGTTAACTAGGTAACGTAAGATTCAGCT
Given back: Not satisfied

Asked: // query: TCTATTAGTTGAGGGGCAACCGACGAGTCCGTTT
Given back: Not satisfied

Asked: // query: AGAATGAGGTTACCAAAGATCAGGGGAACGCTTG
Given back: Not satisfied

---

Tested on: PPARg:RXRa 30nM:10nM, anti-RXR (NR concentration 30 nM, RXRa partner concentration 10 nM)
ASSAY_NOTES: PBM binding z-score (relative to random genomic background probes); higher = stronger binding; sequences stand for … in GC…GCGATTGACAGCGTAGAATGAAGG
READOUT: PBM binding z-score
Reply with just the number.

Use the examples below as a reference point.
ACAGACAGGTGAGTGAAGCTAACTCAGCTGGACG    -0.443
CCTTACGTGTCACTGACAGGTTATAGCATTTGGA    0.356
CGAACTAGGTCATTCACAGGACAGTGAATAGTAA    3.72
TCTCGGAGGACACGAAGGTCCGAGCTTTCCAGAG    1.71

Asked: What does the data say about its PBM binding z-score? Entry: CTCGAAAGGTCGTGCTCAGGTGCGTATACCAAAC
Given back: 0.473

Asked: // query: ATCTCTAGGTAAAGATAGTTCAGTGCATGCAAAT
Given back: 0.0573

Asked: // query: ACTAGCAGGACAAGTTTGGGTCACTCAAACAAAG
Given back: -0.0869

Asked: // query: TCGAGTAGTTTACCAATGGGGCATTCAGCTTTCT
Given back: 0.821

Asked: // query: ATATCTAGGTTATCGGGTCATTCAGTTTGCGCAT
Given back: 4.2

Asked: // query: GCATATAGATAATACAAGGTGAAAGTCCGATTGT
Given back: 0.278

Asked: // query: ATGTGTAGGTTATCGGGTCATTCAGTTTGCGCAT
Given back: 1.54

Asked: // query: TCATACAGGTAATACAGGTGAAAGTCGGCATCTA
Given back: 3.85

---

Tested on: LXRa:RXRa (NR concentration 270 nM, RXRa partner concentration 90 nM)
ASSAY_NOTES: PBM binding z-score (relative to random genomic background probes); higher = stronger binding; sequences stand for … in GC…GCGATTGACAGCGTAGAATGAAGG
Param threshold (0.7) applies to PBM binding z-score; output Yes when value >= threshold, No when value < threshold.

Recorded results for 6 sequences are shown here.
TAGCCTAGGGCATGGGCCAGTATACCACGCGAAC    No
TCTATTAGTTGATTTGGGCAACCGAAACAGCGGA    No
CCTCGGAGGACAGAAGGTCAGAGCAGTCCGCTTT    Yes
CCTTACGAGTCACGAGGTTATAGCACGACGAGCG    Yes
CCTTACGGTTCACGAGGTTATAGCACGACGAGCG    Yes
TCTGCTAGTTCAGTTGGTCAGCTAACGAGCTGCC    No

Asked: Has ACTATTAGTTGACATAGGGCAACCGATACGACGC a recorded PBM binding z-score greater than or equal to 0.7?
Given back: No

Asked: // query: AGAACGAGGGCAATGAGTTGTTAGCACGGGTGGC
Given back: No

Asked: // query: CAGCCTAGGTCATGGCCAGTATAGGAGGAACGTT
Given back: Yes

Asked: // query: ATCCCTAGGTAAAAGTTCAGTGAATCCCGAGGAT
Given back: Yes

Asked: // query: AATACAAGGTCACTAGGCCAGAGTAGGTACGAAT
Given back: Yes

---

System: VDR homodimer (NR concentration 270 nM)
ASSAY_NOTES: PBM binding z-score (relative to random genomic background probes); higher = stronger binding; sequences stand for … in GC…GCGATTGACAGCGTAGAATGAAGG
READOUT: PBM binding z-score
Reply with just the number.

Use the examples below as a reference point.
TCTGCTAGGTCAACGATGTTCAGCTAATCTGCTA    -0.288
CGAACTAGGTCACGAAAGGTCAAAGTCGAATGAC    3.39
GCATATAGGTAATACAAGCTGAAAGTCCGATTGT    -0.000967

Asked: Which measured PBM binding z-score belongs to TCGAGTAGGTTACCAATGGGTCATTCAGCTTTCT , tested on VDR homodimer (NR concentration 270 nM)?
Given back: 0.102

Asked: // query: CAGCCTAGGTCAGGGCCTGTATAGGAGGAACGTT
Given back: -0.924

Asked: // query: TGAATGAGGTTATAAGATCAAGGAACGTTGCAAA
Given back: 0.367

Asked: // query: TCTCGGAGGACACGAAAGGCCAGAGCTCGACATC
Given back: -0.482

Asked: // query: GCAGACTGGTGAAACGCAGGTAACTCAGGGTGGC
Given back: -1.15

Asked: // query: ATCTCCAGGTAACCAAGTTCAGTGAATGCCGAAC
Given back: 3.04

Asked: // query: ATCTCTAGGTAACCAAGTTCAGTGACTGCCGAAC
Given back: 2.9

Asked: // query: CCGACTGGGGCAAAGGTTACCATTCTCAGTACGA
Given back: -0.419

Asked: // query: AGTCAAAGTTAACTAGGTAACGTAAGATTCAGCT
Given back: -0.183

Asked: // query: CCTACTGGGCCATTCAGCGGTCATTGATCATATG
Given back: 0.166

Asked: // query: TCAGATAGGTAAACAGGTGAAAGTCCGTAAGTTA
Given back: 0.407

Asked: // query: GGAACGAGGGCAAGTTGATACCAGAGTTTGATGG
Given back: 2.05

Asked: // query: ACTAGTTGGTCAACTGAGGTCACACACAATTCGG
Given back: 3.22

Asked: // query: GCTGCTAGATCAGGTTGGTCAGCTAACGGGTACG
Given back: 0.19

Asked: // query: CCAGACCGGTGAAAGGTAACTCAGTCTGGTACGC
Given back: -0.186

Asked: // query: ATCTCTAGGTAAAGGTTCAGTGAATCCCGAGGAT
Given back: 1.99

Asked: // query: CAGCCTAGGTCAGGGCCATTATAGGAGGAACGTT
Given back: -0.15

Asked: // query: TCTTGTAGATCAACAGGAGGTTAAGAAGGATCGA
Given back: -0.0476

Cited source for all entries: the supplement of paper PMC6555819
